The reported measurements were obtained from a flash point compilation (Sun et al. 2020).

Field: label. Allowed values: yes (flash point < 30 °C) or no (flash point >= 30 °C).

**Query** Threshold test, flash point < 30 °C: `CCCCCCCCCCS`
**Result** no

**Query** Threshold test, flash point < 30 °C: `Clc1ccccc1Cl`
**Result** no

**Query** Threshold test, flash point < 30 °C: `ClCCCl`
**Result** yes

**Query** Threshold test, flash point < 30 °C: `BrC1CCCCC1`
**Result** no

**Query** Threshold test, flash point < 30 °C: CCC(C)CC(C)(C)CC (centres undefined)
**Result** no

**Query** Threshold test, flash point < 30 °C: `C#CCCC`
**Result** yes

**Query** Threshold test, flash point < 30 °C: `C=CCCCC`
**Result** yes

**Query** Threshold test, flash point < 30 °C: `CCCCCCCCC=O`
**Result** no

**Query** Threshold test, flash point < 30 °C: `CCCCI`
**Result** no

**Query** Threshold test, flash point < 30 °C: `C1=CC=CC=CC=C1`
**Result** yes

**Query** Threshold test, flash point < 30 °C: `COCCO`
**Result** no

**Query** Threshold test, flash point < 30 °C: `C=CCCCCCCCCCCCCCCC`
**Result** no

**Query** Threshold test, flash point < 30 °C: `CCCC1CCCCC1`
**Result** no

**Query** Threshold test, flash point < 30 °C: CCCCC(C)O (centres undefined)
**Result** no
